# key: entry, value: IC50
- System: KB
- method: Cytotoxicity against human KB cells after 72 hrs by SRB assay
- Assay type: functional, cell-based
Write down the numeric answer in nM and omit the unit.

Illustrative cases are given below, each with its answer.
| smi | tested target | IC50 / nM |
| --- | --- | --- |
| CC[C@@]1(OC(=O)CN/C(Cc2ccc(OC)cc2)=N/S(=O)(=O)c2ccc(C)cc2)C(=O)OCc2c1cc1n(c2=O)Cc2cc3cc(F)ccc3nc2-1 | KB | 280 |
| CC[C@@]1(O)C(=O)OCc2c1cc1n(c2=O)Cc2cc3c(CN(C)C)c(O)ccc3nc2-1 | KB | 102 |
| CCc1c2c(nc3ccc(OC(=O)N4CCC(N5CCCCC5)CC4)cc13)-c1cc3c(c(=O)n1C2)COC(=O)[C@]3(O)CC | KB | 7990 |
| CCc1c2c(nc3ccc(F)cc13)-c1cc3c(c(=O)n1C2)COC(=O)[C@]3(O)CC | KB | 69.6 |
| CCc1c2c(nc3ccc(F)cc13)-c1cc3c(c(=O)n1C2)COC(=O)[C@@]3(CC)OC(=O)CN/C(Cc1ccc(OC)cc1)=N/S(=O)(=O)c1ccc(C)cc1 | KB | 47 |

Query compound follows.
Ask: Quick check: IC50 of CC[C@@]1(O)C(=O)OCc2c1cc1n(c2=O)Cc2cc3cc(F)ccc3nc2-1 ?
Reply: 185
